# test name: Rotorod test for neurological impairment, mice ip
# condition parameters: mouse, in vivo

{"columns": ["molecule", "TD50 at 0.5 h"],
 "data": [
  ["COC[C@@H](NC(C)=O)C(=O)NCc1ccc(Oc2ccccc2)cc1 [(R)-3]", "30 to 100 mg/kg"]
]}
